These measurements were taken from the supplement of paper PMC12764529.

Measurement Description: folding stability dG unfold (combined trypsin and chymotrypsin); higher = more stable
folding stability dG unfold by entry:
Quick reminder: number only, in kcal/mol, skip the unit.

Known folding stability dG unfold results, listed for orientation:
{"Sequence Code": "SAGGSMAEPGPMNMTLSFDGIEKEFSVEITVRKRPDGTEVLELRLPDGVPLTLPAAEAAKIVDMSGSAGGSA [r2_297_JUSTAS]", "Quantity": "folding stability dG unfold", "Measured": 0.764}
{"Sequence Code": "SAGGSASIEIPVGDKPVRIEILSLEPEGERVRARAVVYFPDDPEYREISGDLTLEELIDAILEAIGSAGGSA [r15_944_TrMRF]", "Quantity": "folding stability dG unfold", "Measured": 1.21}
{"Sequence Code": "SAGGSAGGMKYVVTVELPETGTTRTLTIPDNYTGEENVKKAVEEEAKKLGYSISKIEITKINDKSAGGSAGG [r6_718_JUSTAS]", "Quantity": "folding stability dG unfold", "Measured": 0.536}
{"Sequence Code": "SAGGTVTLTLELTVKVKRKDGKTETKKVTLTITVEVKEGETVYTPDGKKIKPGKSAEELAKELLKKLSAGGS [r16_440_TrROS_Hall]", "Quantity": "folding stability dG unfold", "Measured": 1.27}
{"Sequence Code": "SAGGSAGGSAGGSKTLTPEEIKKLLDEAKKKGYKTVKITVKNKNGKTYTFTIKIPKEDLSAGGSAGGSAGGS [r4_342_TrROS_Hall]", "Quantity": "folding stability dG unfold", "Measured": 2.95}

Now let's try a different one.
QUERY: Fill blank: measured folding stability dG unfold of the sequence SAGARIVPIKINLKWNPDNGQLEVPIEMYVNNHPVEMEARFDPEDPGKIEFEITYPGNGQEIRASIPLPSAG [r14_178_TrROS] is ____.
RESULT: 0.467

###

Measurement Description: folding stability dG unfold from trypsin proteolysis; higher = more stable
Quantity: folding stability dG unfold (kJ/mol)
Quick reminder: number only, in kJ/mol, skip the unit.

{"Sequence Code": "SAGGSAGGKIIINGKEIEPGETITLPNGLKLEVVDGKIKLVVRDEETGEEKEITLSAEELKKLLSAGGSAGG [r6_940_TrROS_Hall]", "folding stability dG unfold / kJ/mol": 11.1}

QUERY: Fill blank: measured folding stability dG unfold of the sequence SAGGYIPASARIEVLEVFEDGTVRVRVTYPDGSEAEVVARLVRTADGRVYLEIFDPRTGRLLATLELTSAGG [r13_527_TrMRF] is ____.
RESULT: 17.1

QUERY: Fill blank: measured folding stability dG unfold of the sequence SAGGSAGGSAGVVLTEDGYAVATVTVTTTTVEYDEETGEWKETTTTTTETLTVVVPVGATSAGGSAGGSAGG [r17_527_TrROS_Hall] is ____.
RESULT: 11.1

QUERY: Fill blank: measured folding stability dG unfold of the sequence SAGGSAGGSAGGGMTVEESVFLDPSGTRITVTTRVFDDGTVVTETEVTPLPPTPNPALASAGGSAGGSAGGS [r10_878_JUSTAS] is ____.
RESULT: 5.03

QUERY: Fill blank: measured folding stability dG unfold of the sequence SAGGSAGGSAKPNWVIIEMTIQIPEGDPEEIKEIMEPFGWEITGVDNNYIKVSILMPPGAKISAGGSAGGSA [r18_168_TrROS] is ____.
RESULT: 5.28

QUERY: Fill blank: measured folding stability dG unfold of the sequence SAGGSAGGPEVKILKVDPENNTITLALPVDNEILLLEIKIEPDPENPNSFKATIELKVFPYNEASAGGSAGG [r6_371_TrMRF] is ____.
RESULT: 9.74

###

Measurement Description: folding stability dG unfold from trypsin proteolysis; higher = more stable
Label Y when folding stability dG unfold is at or above 0.7 kcal/mol; otherwise label N.

{"Sequence Code": "SAGGSAGGSAGGHMVMITITIPIKKGAEIKFGDWDIKVPPGEQIQITIMIPVPPPDDDKSAGGSAGGSAGGS [r10_949_TrROS]", "Answer Label": "Y"}
{"Sequence Code": "SAGGSAGGSMSTSESVTVTFPDGSVRKATILKQEKLPNGTVPVEIVDEGGTSVGTRNWTVTAESAGGSAGGS [r12_735_JUSTAS]", "Answer Label": "N"}
{"Sequence Code": "SAGGSAGGLRVVKPEKVVEAIRKIRELVPKNYLVIVDSIEVREEGGKLYVDIPVLVLPVPPELLSAGGSAGG [r6_819_TrMRF]", "Answer Label": "Y"}

Lab note: next sequence to report on.
QUERY: Does SAGGSMLFLRVRIEVRPPTAEDLAEGKEVKEVEILVEFDSVEELKEALEKLPPNAKVEVELVELEESAGGSA [r2_25_TrROS_Hall] have a reported folding stability dG unfold of at least 0.7 kcal/mol?
RESULT: Y

###

Measurement Description: folding stability dG unfold (combined trypsin and chymotrypsin); higher = more stable
folding stability dG unfold by entry:
Quick reminder: number only, in kJ/mol, skip the unit.

{"Sequence Code": "SAGGPMRRVKVEIKDPDGGKIEIDDVYVPDNSVWAKIFLPDLGREIPFPFDTPDQAVEWIKDFVLQLSAGGS [r16_736_TrROS]", "Readout Units": "kJ/mol", "Measured": 3.89}
{"Sequence Code": "SAGGSAGGPNMYMFKLEIKWYDPGKGKPVATRPITVMVPEDDLPEILKNLPPGFEIKNITIFPMSAGGSAGG [r6_777_TrROS]", "Readout Units": "kJ/mol", "Measured": 10.2}
{"Sequence Code": "SAGGSAGGPPVEERELTLPDGTRLTITRYPDSYTVEVTLPDGTVETRTYPDVTPEEAVAAVKAASAGGSAGG [r6_459_JUSTAS]", "Readout Units": "kJ/mol", "Measured": 7.75}
{"Sequence Code": "SAGGSAMTITIKIENEDVTIPSSKSKEEILKAIKENPDVPVTVTLPDGTPVTLSPEELEKLIKEEKSAGGSA [r15_36_JUSTAS]", "Readout Units": "kJ/mol", "Measured": 4.66}
{"Sequence Code": "SAGGSVPERAKVVTLVLRFEEPESLGIPLLERLLRELGFPDAVLGEVRIEPLPDGSVVAVVPLLVPSAGGSA [r2_346_TrMRF]", "Readout Units": "kJ/mol", "Measured": 12.2}

QUERY: Fill blank: measured folding stability dG unfold of the sequence SAGGSSSLSGLKNVTEEPRLAPDSDEEEVLITYENGYLERREPGVLEFYDPENGKVLSKKNVPYHHSAGGSA [r2_374_JUSTAS] is ____.
RESULT: -1.36

QUERY: Fill blank: measured folding stability dG unfold of the sequence SAGGSAGGSSMTFISTSTSPGNGYTYNIYSQPGKVVVTTTAPDGTVSVTTVEVSPDTSVTVTAASAGGSAGG [r6_380_JUSTAS] is ____.
RESULT: 5.43

QUERY: Fill blank: measured folding stability dG unfold of the sequence SAGMVRIETYTHPDGTLRLVVYRPETGERAVFEFPLEDPEKFREAVEELAERLREEGFPVEVDIRPTLPSAG [r5_815_TrMRF] is ____.
RESULT: 16.6

QUERY: Fill blank: measured folding stability dG unfold of the sequence SAGGSAGGSAGMKTVTVTVPPSAGVDAVREALAAQGMTVTSVSREGDTLTVTTEAPPELLSAGGSAGGSAGG [r11_672_JUSTAS] is ____.
RESULT: 0.101

QUERY: Fill blank: measured folding stability dG unfold of the sequence SAGGMLLVRIRVKLSPEQIKALEEAGFEVVEERDGEVVVRLEVSPEQLEKLKALFPDAEIEVVELPPESAGG [r13_261_TrROS_Hall] is ____.
RESULT: 22

QUERY: Fill blank: measured folding stability dG unfold of the sequence SAGGVVTFLPGNLIKTTYFDPEKGTRTETLYYVPPDGTTTKLKTTVTPIPPTPLERPFFFGPDDVPVLSAGG [r13_646_JUSTAS] is ____.
RESULT: 1.98

QUERY: Fill blank: measured folding stability dG unfold of the sequence SPGVTVEISTSTLPNGTRVTTLTTTTFDPQTGTTSTTTTVTVSPAPSSASPLRRELVTRPDGTLVPAALLSA [r9_898_JUSTAS] is ____.
RESULT: 0.702

QUERY: Fill blank: measured folding stability dG unfold of the sequence SAGGSAGGEIPADAEIEEFEFGGKPYFLVRFPDGTAALYERKGDKWELIATVPVPPDSRIFFKGSAGGSAGG [r6_475_TrMRF] is ____.
RESULT: 4.69

QUERY: Fill blank: measured folding stability dG unfold of the sequence SAGGSAGGSAGMPVKVVLVKWKGGGLEPEGGEEREVEIGPEELEKLVKEAEKEGYEVYPASAGGSAGGSAGG [r17_18_TrMRF] is ____.
RESULT: 0.286

QUERY: Fill blank: measured folding stability dG unfold of the sequence SAGGSAGGSSGMVKAEFGLVAPDGTPVSTRTLTFSSEEEIEEALAALPEFSLALVPDVKRGPLSAGGSAGGS [r12_182_JUSTAS] is ____.
RESULT: 2.13
